// data source = ChEMBL document CHEMBL5236560

Assay: Metabolic stability in dog liver microsomes assessed as parent compound remaining measured after 2 hrs
Format: ADME, Canis lupus familiaris, Microsome
Details: read-out: Stability
endpoint: remaining at 2 h (%)
The figure you give is taken to be in %; do not add the unit.

Complete the entry with remaining at 2 h for `CNCCNCc1cccc(-c2nc(NC3CCOCC3)c(C)c(-c3c(C)noc3C)n2)c1`
85.5

====

Consider compounds characterized by their pIC50 with UniProt:Q86X55.
Please note pIC50 is a logarithmic value: minus log10 of concentration in mol/L. Answer with that number alone.

Find the measured pIC50 of `CNCCNCc1cccc(-c2nc(NC3CCOCC3)c(C)c(-c3ccc(S(C)(=O)=O)cc3)n2)c1` and report it.
8.28

Quote pIC50 reported for `CNCCNCc1cccc(-c2nc(-c3c(C)noc3C)c(C)c(N3CCOCC3)n2)c1` please.
8.96

Query pIC50 for `CNCCNCc1cccc(-c2nc(NC3CCOCC3)c(C)c(-c3ccncc3)n2)c1`
8.43

Give me measured pIC50, please, for this compound: `CNCCNCc1cccc(-c2nc(-c3c(C)noc3C)c(C)c(N3Cc4ccccc4C3)n2)c1`
7.99

Name the recorded pIC50 of the compound listed here: `CNCCNCc1cccc(-c2nc(NC3CCOCC3)c(C)c(-c3cc4cccc(OC)c4[nH]3)n2)c1`
7.53

Report measured pIC50; entry is `CNCCNCc1cccc(-c2nc(-c3c(C)noc3C)c(C)c(N3CCN(C)CC3)n2)c1`
7.88

====

Target: Histone-arginine methyltransferase CARM1 (Homo sapiens, UniProt Q86X55)
Sequence (Q86X55 whole entry, the tested form may be a part): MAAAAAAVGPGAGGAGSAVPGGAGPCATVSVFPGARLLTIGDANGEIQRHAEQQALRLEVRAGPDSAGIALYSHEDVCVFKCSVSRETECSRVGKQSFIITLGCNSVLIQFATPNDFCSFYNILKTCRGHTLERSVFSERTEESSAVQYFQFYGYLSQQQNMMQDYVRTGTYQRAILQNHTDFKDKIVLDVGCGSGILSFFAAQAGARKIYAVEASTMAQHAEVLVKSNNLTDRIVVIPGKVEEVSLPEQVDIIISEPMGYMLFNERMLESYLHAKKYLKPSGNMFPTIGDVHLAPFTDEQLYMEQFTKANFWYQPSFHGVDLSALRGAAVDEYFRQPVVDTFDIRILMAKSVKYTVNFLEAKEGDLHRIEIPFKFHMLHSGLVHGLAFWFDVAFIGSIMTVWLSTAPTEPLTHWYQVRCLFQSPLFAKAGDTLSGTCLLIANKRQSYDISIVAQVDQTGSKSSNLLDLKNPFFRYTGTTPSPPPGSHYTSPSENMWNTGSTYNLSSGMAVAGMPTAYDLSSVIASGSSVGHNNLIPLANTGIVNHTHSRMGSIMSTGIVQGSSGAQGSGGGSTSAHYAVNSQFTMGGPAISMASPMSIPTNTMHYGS
Assay: Inhibition of human CARM1 (140 to 480 residues) incubated for 15 mins measured after 60 min by AlphaLISA assay
endpoint: IC50

Supply IC50 value. Item: `Cc1c(NC2CCOCC2)nc(-c2cccc(CNC(=O)[C@@H](N)CO)c2)nc1-c1ccccc1`
> 1000 nM

In one line, give reported IC50 of the entry `Cc1noc(C)c1-c1nc(-c2cccc(CNC(=O)[C@H](C)N)c2)nc(NC2CCOCC2)c1C` .
> 1000 nM

Give the measured IC50 for `Cc1c(NC2CCOCC2)nc(-c2cccc(CNC(=O)[C@H](C)N)c2)nc1-c1ccccc1`
> 1000 nM
